Give measured growth inhibition for each item. Keep answers brief.
- assay_name: NCI Yeast Anticancer Drug Screen. Data for the sgs1 mgt1 strain (AID 161);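 note: 0% = growth of cultures given vehicle only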
- assay_context: S. cerevisiae sgs1 mgt1 strain, at 50.0 µM, active compounds read high
This is part of a sample that, as a whole, favours compounds with a hit. Of some 79,000 tested, about 15% had one in any assay.
Form entry: value (%) — number only.

Exercise: Please indicate growth inhibition recorded for CCOC(=O)C(NC(C)=O)C(O)c1ccc(C(C)C)cc1 (configuration not stated)
Solution: 8.45

Exercise: Supply recorded growth inhibition for `CSc1cc(C)c(C#N)c(SC)n1` here.
Solution: -12.9

Exercise: Annotate the molecule CCOc1ccc(C(CC)c2cc3c(cc2OC)OCO3)cc1 (configuration not stated) with its measured growth inhibition.
Solution: -9.35

Exercise: Dear colleague, please send me the reported growth inhibition for `CCN(CC)Cc1cc(-n2cnc3c(=S)nc[nH]c32)ccc1O` when you can.
Solution: -8.8

Exercise: Tell me measured growth inhibition for `O=C(/C=C/c1ccccn1)c1ccc(Cl)cc1` please.
Solution: 24.1

Exercise: State its growth inhibition: `O=c1[nH]c2c(Cl)cccc2c2ccccc12`
Solution: -7.45

Exercise: Supply recorded growth inhibition for OCC1COc2ccc(Cl)cc2O1 (configuration not stated) (tested in a mixture with another compound) here.
Solution: 2.65

Exercise: Answer with the recorded growth inhibition of `O=[N+]([O-])c1ccc2cccc3c2c1CC3` only.
Solution: 1.85

Exercise: Identify measured growth inhibition associated with `Cc1ccc(S(=O)(=O)OCCOc2ccc(C(C)(C)CC(C)(C)C)cc2)cc1`
Solution: 30.5

Exercise: Indicate its recorded growth inhibition; the molecule in question is `O=C(/C=C/C(=O)NCc1ccccc1)NCc1ccccc1`
Solution: 16.9

Exercise: Give the measured growth inhibition for CC(C)C1CCC2(C)C(CCC3C(C)(CO)CCCC32O)C1 (configuration not stated)
Solution: 19.5

Exercise: State its growth inhibition for this molecule: `CC(=O)[O][Ga]([Br])[O]C(C)=O`
Solution: 12.3

Values were extracted from PubChem BioAssay (NCI).
